- condition.summary: in water, 283.15 K
readout: solubility (mole fraction)

1 = O=C(O)/C=C\C(=O)O
2 = O=C(O)CC(O)C(=O)O (configuration not stated)
## Input Consider 1 and 2 . Which of these has its solubility (mole fraction) at a higher number? API: response body contains the label of the selected item.
## Output 2
(2: 0.121, 1: 0.0779)

###

- condition.summary: in water, 323.15 K
readout: solubility (mole fraction)

>>> observed_value("O=C(O)CC(O)C(=O)O (configuration not stated)")
0.231
>>> observed_value("O=C(O)/C=C\\C(=O)O")
0.184

###

- condition.summary: in water, 278.15 K
readout: solubility (mole fraction)

1 = O=C(O)/C=C\C(=O)O
2 = O=C(O)CC(O)C(=O)O (configuration not stated)
## Input Looking only at measured solubility (mole fraction), which entry is lower, 1 or 2 ? Answer by quoting the chosen item's label.
## Output 1
